Assignment: determine reported Cyno T-cell Binding 0.2 uM (MFI) for the given binders.
Target: T1, cynomolgus monkey CD8 alpha on primary cynomolgus CD8+ T cells (cynomolgus monkey, UniProt P01732 23-235 (human entry))
T1 construct: also called Cyno CD8alpha; cyno CD8A
T1 sequence (P01732 other isoform, or with tags, fused parts or gaps limits assumed): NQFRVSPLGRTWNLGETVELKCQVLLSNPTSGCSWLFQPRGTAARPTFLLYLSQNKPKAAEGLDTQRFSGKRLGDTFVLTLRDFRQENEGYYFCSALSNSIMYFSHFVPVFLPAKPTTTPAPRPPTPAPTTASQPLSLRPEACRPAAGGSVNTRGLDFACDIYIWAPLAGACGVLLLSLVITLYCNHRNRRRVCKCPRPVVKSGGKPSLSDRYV
Assay: flow cytometry, cyno CD8+ T cells
Unit MFI implied. Number only.

// query Cyno T-cell Binding 0.2 uM (MFI) value for entry P283BR9P1363_G2 (designed binder, FN3 domain) LPAPKNLVVSRVTEDSARLSWPKNQTNRHFDSFLIQYQESEKVGEAIVLTVPGSERSYDLTGLKPGTEYTVSIYGVDVKWEGNRPVASNPLSAIFTT
5380

Can you share its Cyno T-cell Binding 0.2 uM (MFI)? I mean this binder: P283DR9P1364_E3 (designed binder, FN3 domain) LPAPKNLVVSRVTEDSARLSWTAPDAAFDSFGIAYPELPIGGEAIVLTVPGSERSYDLTGLKPGTEYFVIIRGVKGGTLSPPLSAIFTT
887
